The entries below come with measured IC50 values attached.
Molecular target: AXL (Homo sapiens, UniProt P30530)
Experiment: Enzymatic assay (ADP-Glo kinase reaction), AXL
Type: biochemical
Conditions: 10 μM ATP, 60 min, ADP-GLO luminescence
Procedure: All the kinase reactions were performed in 5 μL using tyrosine kinase buffer with 0.2 μg/μL poly (Glu4, Tyr1) substrate, 10 μM ATP, serial dilution of the inhibitor, and incubated at room temperature for 60 min. After the indicated incubation times, 5 μL ADP-GLO™ reagent (Promega, Madison, WI) was added to the reactions and the plate was incubated at room temperature for 40 min. […] All 384-well assay plates were read using a GLOMAX™ Discover Microplate Luminometer from Promega (Madison, WI). […]

| compound | IC50 |
| --- | --- |
| Cc1nc(Cn2cc(C(=O)Nc3ccc(Oc4ccnc(N)c4C#CCN4CCOCC4)c(F)c3)c(=O)n(-c3ccc(F)cc3)c2=O)cs1 [Example 40] | < 100 nM |
| CCCn1cc(C#Cc2c(Oc3ccc(NC(=O)c4cn(C(C)C)c(=O)n(-c5ccc(F)cc5)c4=O)cc3F)ccnc2N)cn1 [Example 13] | < 10 nM |
| CC(C)n1cc(C(=O)Nc2ccc(Oc3ccnc(N)c3C#CCN3CCNCC3)c(F)c2)c(=O)n(-c2ccc(F)cc2)c1=O [Example 17] | < 10 nM |
| Nc1nccc(Oc2ccc(NC(=O)c3cn(C4CCOCC4)c(=O)n(-c4ccc(F)cc4)c3=O)cc2F)c1C#CCC1CCNCC1 [Example 59] | < 100 nM |
| CC(C)n1cc(C(=O)Nc2ccc(Oc3ccnc(N)c3C#CCN3CCN(C)CC3)c(F)c2)c(=O)n(-c2ccc(F)cc2)c1=O [Example 26] | < 10 nM |
| CC(C)n1cc(C(=O)Nc2ccc(Oc3ccnc(N)c3C#CC3CCNCC3)c(F)c2)c(=O)n(-c2ccc(F)cc2)c1=O [Example 15] | < 10 nM |
| Cn1nc(C(=O)Nc2ccc(Oc3ccnc(N)c3C#CCN3CCOCC3)c(F)c2)c(=O)n(-c2ccc(F)cc2)c1=O [Example 49] | < 100 nM |
| CN(C)C(=O)Cn1cc(C(=O)Nc2ccc(Oc3ccnc(N)c3C#CC(C)(C)N3CCOCC3)c(F)c2)c(=O)n(-c2ccc(F)cc2)c1=O [Example 33] | < 10000 nM |
| CC(C)(C#Cc1c(Oc2ccc(NC(=O)c3cn(C4CCOCC4)c(=O)n(-c4ccc(F)cc4)c3=O)cc2F)ccnc1N)N1CCNCC1 [Example 58] | < 100 nM |
| CC(C)n1cc(C(=O)Nc2ccc(Oc3ccnc(N)c3C#CC(C)(C)N3CCOCC3)c(F)c2)c(=O)n(-c2ccc(F)cc2)c1=O [Example 25] | < 10 nM |
| C=CCn1cc(C(=O)Nc2ccc(Oc3ccnc(N)c3C#CCN3CCOCC3)c(F)c2)c(=O)n(CC=C)c1=O [Example 67] | < 10 nM |
| CN1CCC(CC#Cc2c(Oc3ccc(NC(=O)c4cn(C5CCOCC5)c(=O)n(-c5ccc(F)cc5)c4=O)cc3F)ccnc2N)CC1 [Example 60] | < 10 nM |
| CN1CCN(C(C)(C)C#Cc2c(Oc3ccc(NC(=O)c4cn(CC(=O)N(C)C)c(=O)n(-c5ccc(F)cc5)c4=O)cc3F)ccnc2N)CC1 [Example 36] | < 10000 nM |

---

biological target: AXL (Homo sapiens, UniProt P30530); test: Enzymatic assay (ADP-Glo kinase reaction), AXL; assay type: biochemical; conditions: 10 μM ATP, 60 min, ADP-GLO luminescence
property name: IC50

| structure | property name | reading |
| --- | --- | --- |
| C=CCn1cc(C(=O)Nc2ccc(Oc3ccnc(N)c3C#CC(C)(C)N3CCN(C)CC3)c(F)c2)c(=O)n(CC=C)c1=O | IC50 | < 1000 nM |
| COCCN1CCN(C(C)(C)C#Cc2c(Oc3ccc(NC(=O)c4cn(C(C)C)c(=O)n(-c5ccc(F)cc5)c4=O)cc3F)ccnc2N)CC1 | IC50 | < 10 nM |
| C=CCn1cc(C(=O)Nc2ccc(Oc3ccnc(N)c3C#CC(C)(C)N3CCOCC3)c(F)c2)c(=O)n(CC=C)c1=O | IC50 | < 1000 nM |

---

target: c-MET (Homo sapiens, UniProt P08581); experiment: Enzymatic assay (ADP-Glo kinase reaction), c-MET; format: biochemical; conditions: 10 μM ATP, 60 min, ADP-GLO luminescence
Sequence (P08581 25-1390): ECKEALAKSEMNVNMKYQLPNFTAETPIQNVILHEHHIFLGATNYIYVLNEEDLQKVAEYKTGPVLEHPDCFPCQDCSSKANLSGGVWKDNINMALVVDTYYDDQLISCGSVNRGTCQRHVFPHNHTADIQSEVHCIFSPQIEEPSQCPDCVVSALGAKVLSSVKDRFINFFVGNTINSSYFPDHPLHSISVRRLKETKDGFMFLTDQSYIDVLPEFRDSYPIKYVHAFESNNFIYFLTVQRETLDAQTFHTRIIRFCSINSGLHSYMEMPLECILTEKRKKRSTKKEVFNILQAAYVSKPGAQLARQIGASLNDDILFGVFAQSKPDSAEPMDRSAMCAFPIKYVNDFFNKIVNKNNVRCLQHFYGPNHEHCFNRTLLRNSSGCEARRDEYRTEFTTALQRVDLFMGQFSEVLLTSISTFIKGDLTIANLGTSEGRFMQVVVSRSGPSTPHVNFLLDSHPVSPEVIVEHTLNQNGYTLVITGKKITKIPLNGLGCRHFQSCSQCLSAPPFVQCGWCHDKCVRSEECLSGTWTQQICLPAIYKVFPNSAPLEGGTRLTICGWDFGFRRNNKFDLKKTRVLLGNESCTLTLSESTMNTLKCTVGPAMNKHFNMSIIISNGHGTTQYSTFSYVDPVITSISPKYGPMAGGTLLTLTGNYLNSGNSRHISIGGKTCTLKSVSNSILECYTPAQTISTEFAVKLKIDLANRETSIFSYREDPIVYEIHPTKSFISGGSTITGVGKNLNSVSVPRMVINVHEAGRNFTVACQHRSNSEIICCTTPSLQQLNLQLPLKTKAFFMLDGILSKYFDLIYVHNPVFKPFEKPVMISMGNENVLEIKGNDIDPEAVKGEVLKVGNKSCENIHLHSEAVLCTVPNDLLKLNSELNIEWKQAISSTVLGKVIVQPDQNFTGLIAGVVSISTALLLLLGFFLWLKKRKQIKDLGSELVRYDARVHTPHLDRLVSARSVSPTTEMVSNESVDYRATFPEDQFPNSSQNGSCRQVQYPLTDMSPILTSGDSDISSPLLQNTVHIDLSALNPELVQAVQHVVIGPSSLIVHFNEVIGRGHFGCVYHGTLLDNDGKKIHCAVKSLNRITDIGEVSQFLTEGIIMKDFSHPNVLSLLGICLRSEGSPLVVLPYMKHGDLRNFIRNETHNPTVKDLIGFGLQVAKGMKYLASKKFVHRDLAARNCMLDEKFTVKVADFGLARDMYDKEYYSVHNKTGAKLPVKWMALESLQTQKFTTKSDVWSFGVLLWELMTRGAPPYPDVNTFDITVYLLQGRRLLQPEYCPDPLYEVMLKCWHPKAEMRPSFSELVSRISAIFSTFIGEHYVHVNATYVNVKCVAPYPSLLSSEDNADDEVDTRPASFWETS

| compound | IC50 |
| --- | --- |
| C=CCn1cc(C(=O)Nc2ccc(Oc3ccnc(N)c3C#CCC3CCN(C)CC3)c(F)c2)c(=O)n(CC=C)c1=O [Example 69] | < 1000 nM |
| CCCn1cc(-c2c(Oc3ccc(NC(=O)c4cn(C(C)C)c(=O)n(-c5ccc(F)cc5)c4=O)cc3F)ccnc2N)cn1 [Example 12] | < 10000 nM |
| CC(C)(C#Cc1c(Oc2ccc(NC(=O)c3c[nH]c(=O)n(-c4ccc(F)cc4)c3=O)cc2F)ccnc1N)N1CCNCC1 [Example 52] | < 1000 nM |
| Nc1nccc(Oc2ccc(NC(=O)c3cn(C4CCOCC4)c(=O)n(-c4ccc(F)cc4)c3=O)cc2F)c1C#CCC1CCNCC1 [Example 59] | < 100 nM |
| CN1CCC(CC#Cc2c(Oc3ccc(NC(=O)c4cn(C5CCOCC5)c(=O)n(-c5ccc(F)cc5)c4=O)cc3F)ccnc2N)CC1 [Example 60] | < 100 nM |
| CC(C)n1cc(C(=O)Nc2ccc(Oc3ccnc(N)c3-c3ccccc3)c(F)c2)c(=O)n(-c2ccc(F)cc2)c1=O [Example 22] | < 100 nM |
| COCCN1CCN(CC#Cc2c(Oc3ccc(NC(=O)c4cn(C(C)C)c(=O)n(-c5ccc(F)cc5)c4=O)cc3F)ccnc2N)CC1 [Example 18] | < 10 nM |

---

The entries below come with measured IC50 values attached.
Biological target: AXL (Homo sapiens)
Sequence (P30530 26-894): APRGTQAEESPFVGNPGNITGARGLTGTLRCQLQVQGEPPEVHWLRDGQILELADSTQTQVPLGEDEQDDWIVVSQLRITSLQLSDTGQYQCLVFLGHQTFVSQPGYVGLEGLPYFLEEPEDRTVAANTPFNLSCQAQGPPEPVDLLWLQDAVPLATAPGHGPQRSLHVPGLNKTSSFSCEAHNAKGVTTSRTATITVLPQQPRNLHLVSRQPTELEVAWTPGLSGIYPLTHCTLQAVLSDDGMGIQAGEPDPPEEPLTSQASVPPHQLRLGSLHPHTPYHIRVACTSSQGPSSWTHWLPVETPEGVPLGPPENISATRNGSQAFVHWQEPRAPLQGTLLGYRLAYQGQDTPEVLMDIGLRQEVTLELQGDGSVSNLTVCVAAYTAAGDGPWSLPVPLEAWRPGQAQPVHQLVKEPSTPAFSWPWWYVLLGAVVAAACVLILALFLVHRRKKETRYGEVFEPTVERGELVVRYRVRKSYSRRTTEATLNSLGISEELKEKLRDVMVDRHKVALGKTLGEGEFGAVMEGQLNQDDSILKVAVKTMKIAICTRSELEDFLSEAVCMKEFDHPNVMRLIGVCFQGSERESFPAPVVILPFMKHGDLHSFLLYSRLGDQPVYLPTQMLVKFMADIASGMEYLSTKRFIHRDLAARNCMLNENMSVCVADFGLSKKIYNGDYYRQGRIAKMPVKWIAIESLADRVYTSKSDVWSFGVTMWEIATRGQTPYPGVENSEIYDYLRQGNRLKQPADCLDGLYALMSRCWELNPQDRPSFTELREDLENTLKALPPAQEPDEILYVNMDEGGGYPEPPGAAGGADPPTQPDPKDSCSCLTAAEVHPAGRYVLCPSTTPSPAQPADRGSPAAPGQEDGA
Experiment: Enzymatic assay (ADP-Glo kinase reaction), AXL
Assay type: biochemical
Settings: 10 μM ATP, 60 min, ADP-GLO luminescence

| structure | IC50 |
| --- | --- |
| CC(C)n1cc(C(=O)Nc2ccc(Oc3ccnc(N)c3C#Cc3ccccn3)c(F)c2)c(=O)n(-c2ccc(F)cc2)c1=O | < 10 nM |
| COCCN1CCC(C#Cc2c(Oc3ccc(NC(=O)c4cn(C(C)C)c(=O)n(-c5ccc(F)cc5)c4=O)cc3F)ccnc2N)CC1 | < 10 nM |
| Cc1nc(Cn2cc(C(=O)Nc3ccc(Oc4ccnc(N)c4C#CC(C)(C)N4CCN(C)CC4)c(F)c3)c(=O)n(-c3ccc(F)cc3)c2=O)cs1 | < 1000 nM |
| CC(C)n1cc(C(=O)Nc2ccc(Oc3ccnc(N)c3C#CC(C)(C)N3CCNCC3)c(F)c2)c(=O)n(-c2ccc(F)cc2)c1=O | < 10 nM |
| CC(C)n1cc(C(=O)Nc2ccc(Oc3ccnc(N)c3C#CCC3CCNCC3)c(F)c2)c(=O)n(-c2ccc(F)cc2)c1=O | < 10 nM |
| CC(C)n1cc(C(=O)Nc2ccc(Oc3ccnc(N)c3-c3ccccc3)c(F)c2)c(=O)n(-c2ccc(F)cc2)c1=O | < 100 nM |
| COCCN1CCN(CC#Cc2c(Oc3ccc(NC(=O)c4cn(C(C)C)c(=O)n(-c5ccc(F)cc5)c4=O)cc3F)ccnc2N)CC1 | < 10 nM |
| Cc1nc(Cn2cc(C(=O)Nc3ccc(Oc4ccnc(N)c4C#CCC4CCNCC4)c(F)c3)c(=O)n(-c3ccc(F)cc3)c2=O)cs1 | < 10 nM |
| CC(C)N1CCC(CC#Cc2c(Oc3ccc(NC(=O)c4cn(C(C)C)c(=O)n(-c5ccc(F)cc5)c4=O)cc3F)ccnc2N)CC1 | < 10 nM |
| Nc1nccc(Oc2ccc(NC(=O)c3c[nH]c(=O)n(-c4ccc(F)cc4)c3=O)cc2F)c1C#CCN1CCOCC1 | < 100 nM |
| CN(C)C(=O)Cn1cc(C(=O)Nc2ccc(Oc3ccnc(N)c3C#CCN3CCOCC3)c(F)c2)c(=O)n(-c2ccc(F)cc2)c1=O | < 1000 nM |
| COCCN1CCN(C(=O)CCc2c(Oc3ccc(NC(=O)c4cn(C(C)C)c(=O)n(-c5ccc(F)cc5)c4=O)cc3F)ccnc2N)CC1 | < 1000 nM |
| CN1CCC(CC#Cc2c(Oc3ccc(NC(=O)c4cn(CC(=O)N(C)C)c(=O)n(-c5ccc(F)cc5)c4=O)cc3F)ccnc2N)CC1 | < 100 nM |
| C=CCn1cc(C(=O)Nc2ccc(Oc3ccnc(N)c3C#CCC3CCNCC3)c(F)c2)c(=O)n(CC=C)c1=O | < 100 nM |
| C=CCn1cc(C(=O)Nc2ccc(Oc3ccnc(N)c3C#CCC3CCN(C)CC3)c(F)c2)c(=O)n(CC=C)c1=O | < 100 nM |
| CN1CCC(CC#Cc2c(Oc3ccc(NC(=O)c4c[nH]c(=O)n(-c5ccc(F)cc5)c4=O)cc3F)ccnc2N)CC1 | < 10 nM |
| Cn1nc(C(=O)Nc2ccc(Oc3ccnc(N)c3C#CC(C)(C)N3CCNCC3)c(F)c2)c(=O)n(-c2ccc(F)cc2)c1=O | < 10 nM |
| CC(C)n1cc(C(=O)Nc2ccc(Oc3ccnc(N)c3C#CC(=O)N3CCNCC3)c(F)c2)c(=O)n(-c2ccc(F)cc2)c1=O | < 10 nM |
| CC(C)n1cc(C(=O)Nc2ccc(Oc3ccnc(N)c3-c3ccc(Oc4ccccc4)cc3)c(F)c2)c(=O)n(-c2ccc(F)cc2)c1=O | < 100 nM |
| CC(C)n1cc(C(=O)Nc2ccc(Oc3ccnc(N)c3C#N)c(F)c2)c(=O)n(-c2ccc(F)cc2)c1=O | < 10 nM |
| Cn1nc(C(=O)Nc2ccc(Oc3ccnc(N)c3C#CCC3CCNCC3)c(F)c2)c(=O)n(-c2ccc(F)cc2)c1=O | < 10 nM |
| Cc1nc(Cn2cc(C(=O)Nc3ccc(Oc4ccnc(N)c4C#CC(C)(C)N4CCOCC4)c(F)c3)c(=O)n(-c3ccc(F)cc3)c2=O)cs1 | < 100 nM |
| CN(C)C(=O)Cn1cc(C(=O)Nc2ccc(Oc3ccnc(N)c3C#CC(C)(C)N3CCNCC3)c(F)c2)c(=O)n(-c2ccc(F)cc2)c1=O | < 10000 nM |
| CC(C)n1cc(C(=O)Nc2ccc(Oc3ccnc(N)c3-c3cnn(C)c3)c(F)c2)c(=O)n(-c2ccc(F)cc2)c1=O | < 10 nM |
| CC(C)(C#Cc1c(Oc2ccc(NC(=O)c3c[nH]c(=O)n(-c4ccc(F)cc4)c3=O)cc2F)ccnc1N)N1CCOCC1 | < 10 nM |
| Cc1noc(C)c1-c1c(Oc2ccc(NC(=O)c3cn(C(C)C)c(=O)n(-c4ccc(F)cc4)c3=O)cc2F)ccnc1N | < 100 nM |
